- Target System: Toll-like receptor 7 (Homo sapiens)
- Procedure Text: Agonist activity at TLR7 in human whole blood assessed as induction of TNFalpha production after 20 hrs by electrochemiluminescence assay
- Format: tissue-based
Experimental Endpoint: EC50 (µM)
Numbers only, in µM.

EC50 in this record for CCC[C@H](C)Oc1nc(N)c2[nH]c(=O)n(CCCCCN3CCCCC3)c2n1 : 10

---

- Procedure Text: Toxicity in female rat assessed as NOAEL after 14 days
- Condition: in vivo, time 14 day
Experimental Endpoint: NOAEL at 336 h (mg/kg/day)
Numbers only, in mg/kg/day.

NOAEL at 336 h in this record for CCC[C@H](C)Oc1nc(N)c2[nH]c(=O)n(CCCCCN3CCCCC3)c2n1 : 0.772

---

- Target System: Toll-like receptor 7 (Homo sapiens, UniProt Q9NYK1)
- Procedure Text: Agonist activity at TLR7 in human PBMC assessed as IFN-alpha production after 24 hrs by electrochemiluminescence assay
- Assay type: cell-based
pEC50: −log10 of the molar value.
Record true (1) whenever pEC50 is at 8 or higher; record false (0) when lower.

Some solved cases for reference:
Smiles Code: CCCCOc1nc(N)c2[nH]c(=O)n(CCCCN3CCCCCC3)c2n1
Discrete Label: true (1)

Smiles Code: CCCCOc1nc(N)c2[nH]c(=O)n(CCCCN3CCCC3)c2n1
Discrete Label: false (0)

Smiles Code: CC[C@H](C)Oc1nc(N)c2[nH]c(=O)n(CCCCCN3CCCCC3)c2n1
Discrete Label: true (1)

Smiles Code: CCCCOc1nc(N)c2[nH]c(=O)n(CCCCN3CCN(C(C)C)CC3)c2n1
Discrete Label: true (1)

Prompt line: Hi, just wondering whether Nc1nc(OC2CCCC2)nc2c1[nH]c(=O)n2CCCCN1CCCCC1 shows pEC50 of 8 or higher.
Response line: false (0)

---

- Procedure Text: Bioavailability in rat after intranasal administration
- Type: ADME, organism-based
- Condition: in vivo, inhaled or intranasal
Experimental Endpoint: bioavailability (%)
Numbers only, in %.

bioavailability in this record for CCC[C@H](C)Oc1nc(N)c2[nH]c(=O)n(CCCCCN3CCCCC3)c2n1 : 12

---

- Target System: Toll-like receptor 8 (Homo sapiens, UniProt Q9NR97)
- Sequence (Q9NR97 whole entry): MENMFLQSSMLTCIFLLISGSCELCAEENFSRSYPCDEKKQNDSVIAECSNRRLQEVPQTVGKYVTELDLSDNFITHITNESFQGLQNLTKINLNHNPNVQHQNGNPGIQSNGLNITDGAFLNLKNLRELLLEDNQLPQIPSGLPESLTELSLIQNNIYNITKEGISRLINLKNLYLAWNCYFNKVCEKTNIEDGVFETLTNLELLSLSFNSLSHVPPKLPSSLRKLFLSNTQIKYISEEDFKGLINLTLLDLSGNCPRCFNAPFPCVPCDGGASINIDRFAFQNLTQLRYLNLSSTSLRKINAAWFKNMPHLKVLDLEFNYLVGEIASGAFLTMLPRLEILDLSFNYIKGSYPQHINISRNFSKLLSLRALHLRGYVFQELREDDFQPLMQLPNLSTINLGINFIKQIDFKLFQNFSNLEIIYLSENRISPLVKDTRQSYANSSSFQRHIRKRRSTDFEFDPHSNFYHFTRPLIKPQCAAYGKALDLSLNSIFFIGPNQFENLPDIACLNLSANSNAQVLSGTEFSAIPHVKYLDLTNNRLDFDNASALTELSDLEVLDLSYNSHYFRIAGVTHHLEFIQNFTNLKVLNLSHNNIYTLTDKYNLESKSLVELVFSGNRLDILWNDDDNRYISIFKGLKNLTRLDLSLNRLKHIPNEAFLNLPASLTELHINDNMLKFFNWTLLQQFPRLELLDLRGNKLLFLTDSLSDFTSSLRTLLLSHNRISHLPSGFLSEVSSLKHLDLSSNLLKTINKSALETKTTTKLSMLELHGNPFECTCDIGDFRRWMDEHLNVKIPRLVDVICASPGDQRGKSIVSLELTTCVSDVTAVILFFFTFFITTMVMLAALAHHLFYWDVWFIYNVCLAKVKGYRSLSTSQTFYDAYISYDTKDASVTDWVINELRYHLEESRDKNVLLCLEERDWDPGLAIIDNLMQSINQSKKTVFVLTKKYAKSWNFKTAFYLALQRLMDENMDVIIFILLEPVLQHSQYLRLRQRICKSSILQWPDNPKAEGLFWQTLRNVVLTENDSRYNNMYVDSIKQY
- Procedure Text: Agonist activity at TLR8 (unknown origin) expressed in human U2OS cells by luciferase reporter assay
Experimental Endpoint: EC50 (µM)
Answers are plain numbers, in µM.

Query CCC[C@H](C)Oc1nc(N)c2[nH]c(=O)n(CCCCCN3CCCCC3)c2n1 on Toll-like receptor 8 (Homo sapiens, UniProt Q9NR97); EC50 returned: 20

---

- Target System: UniProt:Q9NYK1
- Sequence (Q9NYK1 whole entry): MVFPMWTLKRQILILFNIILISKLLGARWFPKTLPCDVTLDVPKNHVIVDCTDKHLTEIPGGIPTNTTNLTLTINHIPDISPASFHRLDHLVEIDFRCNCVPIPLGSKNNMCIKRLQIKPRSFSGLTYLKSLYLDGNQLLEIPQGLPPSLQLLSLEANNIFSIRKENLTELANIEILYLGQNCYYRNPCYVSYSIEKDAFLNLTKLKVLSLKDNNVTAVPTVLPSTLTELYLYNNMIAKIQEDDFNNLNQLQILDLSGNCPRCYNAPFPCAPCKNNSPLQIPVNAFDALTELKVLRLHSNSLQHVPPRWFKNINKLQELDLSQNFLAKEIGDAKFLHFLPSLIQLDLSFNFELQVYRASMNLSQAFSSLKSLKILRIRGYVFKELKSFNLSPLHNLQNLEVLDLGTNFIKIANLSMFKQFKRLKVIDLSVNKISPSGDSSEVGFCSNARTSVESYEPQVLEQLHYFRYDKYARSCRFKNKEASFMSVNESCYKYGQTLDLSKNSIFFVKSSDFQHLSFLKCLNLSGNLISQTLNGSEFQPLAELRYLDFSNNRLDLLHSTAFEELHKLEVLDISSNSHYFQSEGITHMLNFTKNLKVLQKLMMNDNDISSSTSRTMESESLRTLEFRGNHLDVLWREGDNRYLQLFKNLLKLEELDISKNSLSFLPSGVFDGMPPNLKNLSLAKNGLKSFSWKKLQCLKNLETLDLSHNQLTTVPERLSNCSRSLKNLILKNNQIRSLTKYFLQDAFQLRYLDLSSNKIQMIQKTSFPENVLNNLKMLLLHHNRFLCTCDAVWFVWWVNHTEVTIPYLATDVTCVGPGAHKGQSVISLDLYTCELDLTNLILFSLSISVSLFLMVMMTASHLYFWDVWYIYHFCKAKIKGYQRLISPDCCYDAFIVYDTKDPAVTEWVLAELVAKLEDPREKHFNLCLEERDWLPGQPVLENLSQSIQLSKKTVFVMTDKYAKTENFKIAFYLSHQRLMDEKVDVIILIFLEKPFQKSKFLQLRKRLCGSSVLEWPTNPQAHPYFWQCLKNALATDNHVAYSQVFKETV
- Procedure Text: Agonist activity at TLR7 in human PBMC assessed as TNF-alpha production after 24 hrs by electrochemiluminescence assay
- Type: cell-based
pEC50: −log10 of the molar value.
Record YES whenever pEC50 is at 6 or higher; record NO when lower.

Smiles Code: CCCCOc1nc(N)c2[nH]c(=O)n(CCCCC3CCN(C(C)C)CC3)c2n1
Discrete Label: NO
//
Smiles Code: CCCCOc1nc(N)c2[nH]c(=O)n(CCCCC3CCNCC3)c2n1
Discrete Label: YES
//
Smiles Code: CCC[C@H](C)Oc1nc(N)c2[nH]c(=O)n(CCCCC3CCOCC3)c2n1
Discrete Label: YES
//
Smiles Code: CC(C)Oc1nc(N)c2[nH]c(=O)n(CCCCCN3CCCCC3)c2n1
Discrete Label: NO

Prompt line: Hi, just wondering whether CCC[C@H](C)Oc1nc(N)c2[nH]c(=O)n(CCCCCN3CCCCC3)c2n1 shows pEC50 of 6 or higher.
Response line: YES

---

- Procedure Text: Toxicity in male rat assessed as NOAEL after 8 weeks
- Condition: in vivo
Experimental Endpoint: NOAEL at 1344 h
Give the value; after it, write the unit.

NOAEL at 1344 h in this record for CCC[C@H](C)Oc1nc(N)c2[nH]c(=O)n(CCCCCN3CCCCC3)c2n1 : 0.406 mg/kg

---

- Procedure Text: Toxicity in male rat assessed as NOAEL after 14 days
- Condition: in vivo, time 14 day
Experimental Endpoint: NOAEL at 336 h

NOAEL at 336 h in this record for CCC[C@H](C)Oc1nc(N)c2[nH]c(=O)n(CCCCCN3CCCCC3)c2n1 : 0.453 mg/kg/day

---

- Target System: Toll-like receptor 7 (Macaca fascicularis, UniProt B3Y652)
- Sequence (B3Y652 whole entry): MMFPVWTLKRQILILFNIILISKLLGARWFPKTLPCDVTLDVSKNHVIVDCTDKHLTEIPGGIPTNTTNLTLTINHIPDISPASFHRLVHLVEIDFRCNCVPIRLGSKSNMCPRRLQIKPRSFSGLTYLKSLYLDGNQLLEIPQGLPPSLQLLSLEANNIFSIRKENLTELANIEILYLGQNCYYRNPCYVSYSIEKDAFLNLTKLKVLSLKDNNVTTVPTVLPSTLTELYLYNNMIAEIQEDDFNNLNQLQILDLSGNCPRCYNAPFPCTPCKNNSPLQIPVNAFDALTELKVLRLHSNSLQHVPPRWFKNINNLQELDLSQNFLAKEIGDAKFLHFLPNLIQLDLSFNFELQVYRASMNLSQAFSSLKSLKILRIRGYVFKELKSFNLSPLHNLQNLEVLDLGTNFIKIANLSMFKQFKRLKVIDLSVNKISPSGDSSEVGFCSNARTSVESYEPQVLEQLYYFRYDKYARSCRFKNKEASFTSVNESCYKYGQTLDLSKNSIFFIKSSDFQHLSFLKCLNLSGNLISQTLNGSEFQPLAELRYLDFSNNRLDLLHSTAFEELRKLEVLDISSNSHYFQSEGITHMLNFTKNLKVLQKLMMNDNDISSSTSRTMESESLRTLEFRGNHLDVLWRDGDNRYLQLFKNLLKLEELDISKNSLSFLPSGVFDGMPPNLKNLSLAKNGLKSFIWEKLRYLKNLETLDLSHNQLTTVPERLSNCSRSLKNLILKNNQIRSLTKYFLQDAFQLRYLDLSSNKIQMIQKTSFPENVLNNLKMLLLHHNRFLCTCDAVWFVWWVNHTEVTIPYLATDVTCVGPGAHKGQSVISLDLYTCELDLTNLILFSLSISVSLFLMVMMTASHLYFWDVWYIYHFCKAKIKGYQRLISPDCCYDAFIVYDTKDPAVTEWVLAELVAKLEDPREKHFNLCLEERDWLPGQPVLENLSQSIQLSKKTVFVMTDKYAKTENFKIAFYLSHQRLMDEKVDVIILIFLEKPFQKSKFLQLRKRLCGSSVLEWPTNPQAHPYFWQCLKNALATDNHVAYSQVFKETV
- Procedure Text: Agonist activity at TLR7 in cynomolgus monkey whole blood assessed as induction of TNFalpha production
- Format: tissue-based
Experimental Endpoint: EC50

Query CCC[C@H](C)Oc1nc(N)c2[nH]c(=O)n(CCCCCN3CCCCC3)c2n1 on Toll-like receptor 7 (Macaca fascicularis, UniProt B3Y652); EC50 returned: 15.8 µM

---

- Target System: Toll-like receptor 7 (Homo sapiens, UniProt Q9NYK1)
- Procedure Text: Agonist activity at TLR7 in cryopreserved human PBMC assessed as IFN-alpha production after 24 hrs by MSD assay
- Format: cell-based
Could you please report measured pEC50 for the items listed next?
One number for each entry, as −log10 of the molar value.

Compound: CCCCOc1nc(N)c2[nH]c(=O)n(CCCCCCC3CCOCC3)c2n1
Test Result: 6.10
--
Compound: CCCCOc1nc(N)c2[nH]c(=O)n(CCN3CCCCC3)c2n1
Test Result: 5.60
--
Compound: CCCCOc1nc(N)c2[nH]c(=O)n(CCCCC3CCCOC3)c2n1 (stereo not drawn)
Test Result: 7.40
--
Compound: CCCCOc1nc(N)c2[nH]c(=O)n(CCCCCC3CCOCC3)c2n1
Test Result: 7.30
--
Compound: CCCCOc1nc(N)c2[nH]c(=O)n(CCC3CCOCC3)c2n1
Test Result: 6.70
--
Compound: CCCCOc1nc(N)c2[nH]c(=O)n(CCCCC3CCCCO3)c2n1 (stereo not drawn)
Test Result: 6.50
--
Compound: CCCCOc1nc(N)c2[nH]c(=O)n(CCCCC3CCOCC3)c2n1
Test Result: 7.00
--
Compound: CCCCOc1nc(N)c2[nH]c(=O)n(CCCCC3CCCO3)c2n1 (stereo not drawn)
Test Result: 6.80
--
Compound: CCCCOc1nc(N)c2[nH]c(=O)n(CC3CCOCC3)c2n1
Test Result: 6.70
--
Compound: CCCCOc1nc(N)c2[nH]c(=O)n(CCCCC3CCOC3)c2n1 (stereo not drawn)
Test Result: 7.20

// batch mode: one pEC50 value per listed entry
1. CCCCOc1nc(N)c2nc(O)n(CCCN3CCCCC3)c2n1
2. CCCCOc1nc(N)c2nc(O)n(Cc3ccccc3)c2n1
3. CCCCOc1nc(N)c2[nH]c(=O)n(CCCC3CCOCC3)c2n1

Response line:
6.50
6.90
7.20
